Experiment: Fecal excretion study in rats after oral NS, SF or CNS (LC–MS/MS)
Format: in vivo
Settings: rat feces, oral NS 60 mg/kg, 96 h
Below, each entry is listed with its recorded Accumulative excretion percentage.
Supply the numeric figure in %, leaving out any unit text.

INSERT INTO results (molecule, reported_endpoint, readout_value) VALUES
  ('CC(C)=CCC[C@](C)(O[C@@H]1O[C@H](CO[C@@H]2O[C@H](CO)[C@@H](O)[C@H](O)[C@H]2O)[C@@H](O)[C@H](O)[C@H]1O)[C@H]1CC[C@]2(C)[C@@H]1[C@H](O)C[C@@H]1[C@@]3(C)CC[C@H](O[C@@H]4O[C@H](CO)[C@@H](O)[C@H](O)[C@H]4O[C@@H]4O[C@H](CO)[C@@H](O)[C@H](O)[C@H]4O)C(C)(C)[C@@H]3CC[C@]12C [ginsenoside Rb1]', 'Accumulative excretion percentage', 2.741);

Could you please provide reported Accumulative excretion percentage for CC(C)=CCC[C@](C)(O[C@@H]1O[C@H](CO)[C@@H](O)[C@H](O)[C@H]1O)[C@H]1CC[C@]2(C)[C@@H]1[C@H](O)C[C@@H]1[C@@]3(C)CC[C@H](O[C@@H]4O[C@H](CO)[C@@H](O)[C@H](O)[C@H]4O[C@@H]4O[C@H](CO)[C@@H](O)[C@H](O)[C@H]4O)C(C)(C)[C@@H]3CC[C@]12C [ginsenoside Rd] ? Thanks!
6.563

Could you please provide reported Accumulative excretion percentage for CC(C)=CCC[C@](C)(O[C@@H]1O[C@H](CO)[C@@H](O)[C@H](O)[C@H]1O)[C@H]1CC[C@]2(C)[C@@H]1[C@H](O)C[C@@H]1[C@@]3(C)CC[C@H](O)C(C)(C)[C@@H]3[C@@H](O[C@@H]3O[C@H](CO)[C@@H](O)[C@H](O)[C@H]3O)C[C@]12C [ginsenoside Rg1] ? Thanks!
3.814

Could you please provide reported Accumulative excretion percentage for CC(C)=CCC[C@](C)(O[C@@H]1O[C@H](CO)[C@@H](O)[C@H](O)[C@H]1O)[C@H]1CC[C@]2(C)[C@@H]1[C@H](O)C[C@@H]1[C@@]3(C)CC[C@H](O)C(C)(C)[C@@H]3[C@@H](O[C@@H]3O[C@H](CO)[C@@H](O)[C@H](O)[C@H]3O[C@@H]3O[C@@H](C)[C@H](O)[C@@H](O)[C@H]3O)C[C@]12C [ginsenoside Re] ? Thanks!
7.149
